B1: CPEB3 Ribozyme (parent)
chain: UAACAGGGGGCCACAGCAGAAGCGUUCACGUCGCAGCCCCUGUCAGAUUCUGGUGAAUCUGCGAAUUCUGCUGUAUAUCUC

Variants of: B1
Test: self-cleavage, relative activity (ratio to wild type); higher = more cleavage; in vitro, sequencing
Reported self-cleavage is given for each of the following variants.
Form: value (number only, do not type unit).

>>> meas_value("A3G C4G")
1.15
>>> meas_value("G36C G61U")
0.12

Now consider a different variant.
Exercise: Can you share its self-cleavage? I mean this variant: U51C U54C
Key: 1.07
